# Target System: CCR5 (Homo sapiens)
# Sequence (P51681 whole entry, the tested form may be a part): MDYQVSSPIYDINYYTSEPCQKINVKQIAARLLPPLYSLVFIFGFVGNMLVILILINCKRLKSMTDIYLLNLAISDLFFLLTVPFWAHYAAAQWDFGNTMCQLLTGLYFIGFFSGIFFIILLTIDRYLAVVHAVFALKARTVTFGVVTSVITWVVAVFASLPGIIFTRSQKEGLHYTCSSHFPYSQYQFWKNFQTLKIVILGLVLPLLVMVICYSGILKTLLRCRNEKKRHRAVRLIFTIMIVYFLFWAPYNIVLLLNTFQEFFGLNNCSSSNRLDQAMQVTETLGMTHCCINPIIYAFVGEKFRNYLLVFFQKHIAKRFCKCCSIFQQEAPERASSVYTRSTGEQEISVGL
# Test Summary: HeLa-C14:JRFL CD4-dependent cell-cell fusion assay

Smiles Data | IC50
c1ccc(Cc2cn[nH]c2C2CCN(Cc3ccncc3)CC2)cc1 | 36 µM

###

# System: HIV-1 IIIB
# Test Summary: HIV-1 MAGI assay, IIIB (CXCR4 / T-tropic)
# Assay type: cell-based
# Condition Details: Human immunodeficiency virus 1, IIIB, MAGI; table of synthesized compounds; read-out: X4-IC50
pIC50: −log10 of the molar value.
Attribute Measured: pIC50

Compound | Attribute Measured | Reported Value
c1ccc(Cc2cn[nH]c2C2CCN(Cc3ccncc3)CC2)cc1 [Compound 4] | pIC50 | 6.11
c1ccc(CCCC2CCN(Cc3ccccn3)CC2)cc1 | pIC50 | 3.86
FC(F)(F)c1ccc(CN2CCC(c3[nH]ncc3Cc3ccccc3)CC2)cc1 | pIC50 | 4.88

###

# Target System: HIV-1 reverse transcriptase (Human immunodeficiency virus type 1 group M subtype B)
# Test Summary: biochemical
# Assay type: biochemical
# Condition Details: Table 3; read-out: RT IC50

Compound | Unit Abbreviation | Bound Sign | IC50
c1ccc(Cc2cn[nH]c2C2CCN(Cc3ccncn3)CC2)cc1 | µM | = | 146
c1ccc(Cc2cn[nH]c2C2CCN(Cc3ccc4ccccc4c3)CC2)cc1 [drawing 50] | µM | = | 23
Clc1nccc(CN2CCC(c3[nH]ncc3Cc3ccccc3)CC2)c1Cl | µM | = | 4
Clc1cc(CN2CCC(c3[nH]ncc3Cc3ccccc3)CC2)ccn1 [drawing 41] | µM | = | 10
c1ccc(Cc2cn[nH]c2C2CCN(Cc3ccnc4ccccc34)CC2)cc1 | µM | = | 3
N#Cc1ccc(CN2CCC(c3[nH]ncc3Cc3ccccc3)CC2)nc1 | µM | = | 211
[O-][n+]1ccc(CN2CCC(c3[nH]ncc3Cc3ccccc3)CC2)cc1 | µM | > | 100
Clc1cnccc1CN1CCC(c2[nH]ncc2Cc2ccccc2)CC1 [drawing 40] | µM | = | 10
CS(=O)(=O)c1cc(CN2CCC(c3[nH]ncc3Cc3ccccc3)CC2)ccn1 | µM | = | 4
COc1cccc(CN2CCC(c3[nH]ncc3Cc3ccccc3)CC2)c1Cl | µM | = | 1.5
c1ccc(Cc2cn[nH]c2C2CCN(Cc3cccc4ccccc34)CC2)cc1 [drawing 49] | µM | = | 20
Fc1cc(CN2CCC(c3[nH]ncc3Cc3ccccc3)CC2)ccn1 | µM | = | 10

###

# Test Summary: MAGI toxicity
# Condition Details: human, MAGI cells, TC50, table of synthesized compounds

Molecule | Bound Sign | CC50, µM
c1ccc(Cc2cn[nH]c2C2CCN(CC3CCCCC3)CC2)cc1 | = | 142
FC(F)(F)c1ccc(CN2CCC(c3[nH]ncc3Cc3ccccc3)CC2)cc1 | = | 18
CS(=O)(=O)c1ccc(CN2CCC(c3[nH]ncc3Cc3ccccc3)CC2)cc1 | > | 100
c1ccc(Cc2cn[nH]c2C2CCN(Cc3ccccn3)CC2)cc1 | > | 100
Clc1cc(CN2CCC(c3[nH]ncc3Cc3ccccc3)CC2)ccn1 [drawing 93] | = | 34
c1ccc(Cc2cn[nH]c2C2CCN(Cc3cccc4ccccc34)CC2)cc1 [drawing 86] | = | 17.9
N#Cc1ccc(CN2CCC(c3[nH]ncc3Cc3ccccc3)CC2)cc1 | = | 60
c1ccc(CCCC2CCN(Cc3ccccn3)CC2)cc1 | > | 100
c1ccc(Cc2cn[nH]c2C2CCN(Cc3ccncc3)CC2)cc1 | > | 100
Clc1cnccc1CN1CCC(c2[nH]ncc2Cc2ccccc2)CC1 [drawing 92] | = | 67

Value source: patent US10450293B2
